// data source = patent US20160257697A1

Tested on: HCV replicon 1AY93H
measurementNotes: microbe, parasite or virus in culture
Type: cell-based, Hepatitis C virus (HCV)
conditionSet: read-out: 1A Y93H IC50; replicon 1AY93H; Replicon Assay A
recordedEndpoint: IC50 (nM)

compound="COC(=O)NC(C(=O)N1CCC[C@H]1c1ncc(-c2cc(F)c3c(c2)OC(c2ccc(C4CC4)s2)n2c-3cc3cc(-c4cnc([C@@H]5CCCN5C(=O)[C@@H](NC(=O)OC)C(C)C)[nH]4)ccc32)[nH]1)C1CCOC(C)(C)C1 (single isomer, unassigned) [Compound 217]" testtarget="HCV replicon 1AY93H" number=0.18
compound="COC(=O)NC(C(=O)N1[C@@H]2C[C@@H]2C[C@H]1c1ncc(-c2ccc3c(c2)cc2n3C(c3ccc(C4CC4)s3)Oc3cc(-c4cnc([C@@H]5CCCN5C(=O)[C@@H](NC(=O)OC)C(C)C)[nH]4)cc(F)c3-2)[nH]1)C1CCOC(C)(C)C1 (single isomer, unassigned) [Compound 278]" testtarget="HCV replicon 1AY93H" number=0.161

* * *

Test system: HCV replicon 1AY93H
measurementNotes: microbe, parasite or virus in culture
Assay type: cell-based, Hepatitis C virus (HCV)
conditionSet: read-out: 1A Y93H IC50; replicon 1AY93H; Replicon Assay A
pIC50: −log10 of the molar value.
Values of pIC50 greater than or equal to 10 map to Fulfilled; values below map to Not fulfilled.

molecule="COC(=O)N[C@H](C(=O)N1CCC[C@H]1c1ncc(-c2cc(F)c3c(c2)OC(c2cc(C)sc2C)n2c-3cc3cc(-c4cnc([C@@H]5CCCN5C(=O)[C@@H](NC(=O)OC)C(C)C)[nH]4)ccc32)[nH]1)C(C)C (single isomer, unassigned) [Compound 320]" qualitativelabel="Not fulfilled"
molecule="COC(=O)NC(C(=O)N1CCC[C@H]1c1ncc(-c2ccc3c(c2)cc2n3C(c3ccc(C4CC4)s3)Oc3cc(-c4cnc([C@@H]5CCCN5C(=O)[C@@H](NC(=O)OC)C(C)C)[nH]4)cc(F)c3-2)[nH]1)C1CCOC(C)(C)C1 (single isomer, unassigned) [Compound 220]" qualitativelabel="Not fulfilled"
molecule="COC(=O)NC(C(=O)N1CCC[C@H]1c1ncc(-c2ccc3c(c2)cc2n3C(c3cc4nccnc4s3)Oc3cc(-c4cnc([C@@H]5CCCN5C(=O)[C@@H](NC(=O)OC)C(C)C)[nH]4)cc(F)c3-2)[nH]1)C1C[C@@H](C)O[C@@H](C)C1 (single isomer, unassigned) [Compound 372]" qualitativelabel=Fulfilled
molecule="COC(=O)NC(C(=O)N1CCC[C@H]1c1ncc(-c2ccc3c(c2)cc2n3C(c3ccc(CC4CC4)s3)Oc3cc(-c4cnc([C@@H]5CCCN5C(=O)[C@@H](NC(=O)OC)C(C)C)[nH]4)cc(F)c3-2)[nH]1)C1CCO[C@H](C)C1 (single isomer, unassigned) [Compound 367]" qualitativelabel=Fulfilled
molecule="COC(=O)N[C@H](C(=O)N1CCC[C@H]1c1ncc(-c2cc(C)c3c(c2)OC(c2cc(C)c(C)s2)n2c-3cc3cc(-c4cnc([C@@H]5CCCN5C(=O)[C@@H](NC(=O)OC)C(C)C)[nH]4)ccc32)[nH]1)C(C)C (single isomer, unassigned) [Compound 15]" qualitativelabel="Not fulfilled"
molecule="COC(=O)NC(C(=O)N1CCC[C@H]1c1ncc(-c2ccc3c(c2)cc2n3C(c3ccc(C4CC4)s3)Oc3cc(-c4cnc([C@@H]5CCCN5C(=O)[C@@H](NC(=O)OC)C(C)C)[nH]4)cc(F)c3-2)[nH]1)C1CCO[C@H](C)C1 (single isomer, unassigned) [Compound 136]" qualitativelabel="Not fulfilled"

* * *

Test system: HCV replicon 1AY93H
measurementNotes: microbe, parasite or virus in culture
Type: cell-based, Hepatitis C virus (HCV)
conditionSet: read-out: 1A Y93H IC50; replicon 1AY93H; Replicon Assay A
pIC50: −log10 of the molar value.
recordedEndpoint: pIC50

molecule="COC(=O)N[C@H](C(=O)N1CCC[C@H]1c1ncc(-c2cc(F)c3c(c2)OC(c2sc(C4CC4)cc2C)n2c-3cc3cc(-c4cnc([C@@H]5CCCN5C(=O)[C@@H](NC(=O)OC)C(C)C)[nH]4)ccc32)[nH]1)C(C)C (single isomer, unassigned) [Compound 329]" number=9.03
molecule="COC(=O)N[C@H](C(=O)N1CCC[C@H]1c1ncc(-c2cc(F)c3c(c2)OC(c2ccc(F)s2)n2c-3cc3cc(-c4cnc([C@@H]5CCCN5C(=O)[C@@H](NC(=O)OC)C(C)C)[nH]4)ccc32)[nH]1)C(C)C (single isomer, unassigned) [Compound 14]" number=10.23
molecule="COC(=O)NC(C(=O)N1CCC[C@H]1c1ncc(-c2ccc3c(c2)cc2n3C(c3cc(C)c(C)s3)Oc3cc(-c4cnc([C@@H]5CCCN5C(=O)[C@@H](NC(=O)OC)C(C)C)[nH]4)cc(F)c3-2)[nH]1)C(C)(C)F (single isomer, unassigned) [Compound 42]" number=7.37
molecule="COC(=O)NC(C(=O)N1CCC[C@H]1c1ncc(-c2ccc3c(c2)cc2n3C(c3cc4nccnc4s3)Oc3cc(-c4cnc([C@@H]5CCCN5C(=O)[C@@H](NC(=O)OC)C(C)C)[nH]4)cc(F)c3-2)[nH]1)C1C[C@@H](C)O[C@@H](C)C1 (single isomer, unassigned) [Compound 371]" number=9.26
molecule="COC(=O)NC(C(=O)N1CCC[C@H]1c1ncc(-c2cc(F)c3c(c2)OC(c2ccc(C4CC4)s2)n2c-3cc3cc(-c4cnc([C@@H]5C[C@H]6C[C@H]6N5C(=O)[C@@H](NC(=O)OC)C(C)C)[nH]4)ccc32)[nH]1)C(C)(C)F (single isomer, unassigned) [Compound 99]" number=9.28
molecule="COC(=O)NC(C(=O)N1CCC[C@H]1c1ncc(-c2ccc3c(c2)cc2n3C(c3ccc(C4CC4)s3)Oc3cc(-c4cnc([C@@H]5CCCN5C(=O)[C@@H](NC(=O)OC)C(C)C)[nH]4)cc(F)c3-2)[nH]1)C1C[C@@H](C)O[C@H](C)C1 (single isomer, unassigned) [Compound 193]" number=8.32
molecule="COC(=O)N[C@H](C(=O)N1CCC[C@H]1c1ncc(-c2ccc3c(c2)cc2n3C(c3ccc(C4CC4)s3)Oc3cc(-c4cnc([C@@H]5CCCN5C(=O)[C@@H](NC(=O)OC)C5CCOCC5)[nH]4)cc(C)c3-2)[nH]1)C(C)C (single isomer, unassigned) [Compound 123]" number=9.23

* * *

Tested on: HCV replicon 1AY93H
measurementNotes: microbe, parasite or virus in culture
Assay type: cell-based, Hepatitis C virus (HCV)
conditionSet: read-out: 1A Y93H IC50; HCV replicon 1A Y93H; Replicon Assay A
pIC50: −log10 of the molar value.
Recorded pIC50, one value per entry.
recordedEndpoint: pIC50

compound="COC(=O)N[C@H](C(=O)N1CCC[C@H]1c1ncc(-c2cc(C)c3c(c2)OC(c2ccc(C4CC4)s2)n2c-3cc3cc(-c4cnc([C@@H]5C[C@H]6C[C@H]6N5C(=O)[C@@H](NC(=O)OC)C5CCOCC5)[nH]4)ccc32)[nH]1)C(C)C (single isomer, unassigned) [Compound 764]" number=11.36
compound="COC(=O)NC(C(=O)N1CCC[C@H]1c1ncc(-c2ccc3c(c2)cc2n3C(c3cc4c(s3)CCC4)Oc3cc(-c4cnc([C@@H]5CCCN5C(=O)[C@@H](NC(=O)OC)C(C)C)[nH]4)cc(C)c3-2)[nH]1)C1CCOC(C)(C)C1 (single isomer, unassigned) [Compound 853]" number=10.07
compound="COC(=O)N[C@H](C(=O)N1CCC[C@H]1c1ncc(-c2ccc3c(c2)OC(c2ccc(C4CC4)s2)n2c-3c(F)c3cc(-c4cnc([C@@H]5CCCN5C(=O)[C@@H](NC(=O)OC)C(C)C)[nH]4)ccc32)[nH]1)C(C)C (single isomer, unassigned) [Compound 604]" number=10.50
compound="COC(=O)NC(C(=O)N1CCC[C@H]1c1ncc(-c2ccc3c(c2)cc2n3C(c3cc4ccccc4s3)Oc3cc(-c4cnc([C@@H]5CCCN5C(=O)[C@@H](NC(=O)OC)C(C)C)[nH]4)cc(F)c3-2)[nH]1)C1C[C@@H](C)O[C@@H](C)C1 (single isomer, unassigned) [Compound 642]" number=10.18

* * *

This section presents compounds with their documented IC50 values.
Tested on: HCV replicon 2B
measurementNotes: microbe, parasite or virus in culture
Assay type: cell-based, Hepatitis C virus (HCV)
conditionSet: Hepatitis C virus, read-out: 2B IC50, HCV replicon 2B; Replicon Assay A
recordedEndpoint: IC50

compound="COC(=O)N[C@H](C(=O)N1CCC[C@H]1c1nc(-c2ccc3c(c2)OC(c2ccc(Cl)s2)n2c-3cc3cc(-c4c[nH]c([C@@H]5CCCN5C(=O)[C@@H](NC(=O)OC)C5CCOCC5)n4)ccc32)c[nH]1)C1CCOCC1 (mixture of isomers)" result="0.027 nM"
compound="COC(=O)N[C@H](C(=O)N1CCC[C@H]1c1nc(-c2ccc3c(c2)OC(c2ccc(C4CC4)s2)n2c-3cc3cc(-c4c[nH]c([C@@H]5CCCN5C(=O)[C@@H](NC(=O)OC)C5CCOCC5)n4)ccc32)c[nH]1)C1CCOCC1 (mixture of isomers)" result="0.022 nM"
compound="COC(=O)N[C@H](C(=O)N1CCC[C@H]1c1ncc(-c2cc(F)c3c(c2)OC(c2cccs2)n2c-3cc3cc(-c4cnc([C@@H]5CCCN5C(=O)[C@@H](NC(=O)OC)C(C)C)[nH]4)ccc32)[nH]1)C(C)C (mixture of isomers)" result="2.5 nM"
compound="COC(=O)NC(C(=O)N1CCC[C@H]1c1ncc(-c2ccc3c(c2)cc2n3C(c3ccc(CC(C)(C)OC)s3)Oc3cc(-c4cnc([C@@H]5CCCN5C(=O)[C@@H](NC(=O)OC)C(C)C)[nH]4)cc(F)c3-2)[nH]1)C1CCOC(C)(C)C1 (some centres unmarked)" result="0.026 nM"
compound="CCN(CC)[C@@H](C(=O)N1C[C@H](F)C[C@H]1c1nc(-c2ccc3c(c2)cc2n3C(c3cc(C)c(C)s3)Oc3cc(-c4c[nH]c([C@@H]5C[C@@H](F)CN5C(=O)[C@@H](NC(=O)OC)C(C)C)n4)ccc3-2)c[nH]1)c1ccccc1 (mixture of isomers)" result="15.3 nM"
compound="COC(=O)NC(C(=O)N1CCC[C@H]1c1ncc(-c2ccc3c(c2)cc2n3C(c3ccc(C(F)(F)F)s3)Oc3cc(-c4cnc([C@@H]5CCCN5C(=O)[C@@H](NC(=O)OC)C(C)C)[nH]4)cc(F)c3-2)[nH]1)C1C[C@@H](C)O[C@@H](C)C1 (some centres unmarked)" result="0.005 nM"
compound="COC(=O)N[C@H](C(=O)N1CCC[C@H]1c1ncc(-c2cc(F)c3c(c2)OC(c2ccc(C4CC4)s2)n2c-3cc3cc(-c4cnc([C@@H]5CCCN5C(=O)[C@@H](NC(=O)OC)C5CC6(COC6)C5)[nH]4)ccc32)[nH]1)C(C)C (mixture of isomers)" result="4.32 nM"
compound="COC(=O)N[C@H](C(=O)N1CCC[C@H]1c1ncc(-c2cc3c4c(c2)OC(c2ccc(Cl)s2)n2c-4c(c4cc(-c5cnc([C@@H]6CCCN6C(=O)[C@@H](NC(=O)OC)C(C)C)[nH]5)ccc42)CC3)[nH]1)C(C)C (some centres unmarked)" result="16.7 nM"
compound="COC(=O)N[C@H](C(=O)N1C[C@H](F)C[C@H]1c1ncc(-c2ccc3c(c2)OC(c2cc(C)c(C)s2)n2c-3cc3cc(-c4c[nH]c([C@@H]5C[C@@H](F)CN5C(=O)[C@@H](NC(=O)OC)C5CCOCC5)n4)ccc32)[nH]1)C(C)C (mixture of isomers)" result="0.76 nM"
compound="COC(=O)N[C@H](C(=O)N1CCC[C@H]1c1ncc(-c2ccc3c(c2)OC(c2ccc(C4CC4)s2)n2c-3c(F)c3cc(-c4cnc([C@@H]5C[C@H]6C[C@H]6N5C(=O)[C@@H](NC(=O)OC)C5C[C@@H](C)O[C@@H](C)C5)[nH]4)ccc32)[nH]1)C(C)C (single isomer, unassigned)" result="0.0161 nM"
compound="CCc1ccc(C2Oc3cc(-c4cnc([C@@H]5CCCN5C(=O)[C@@H](NC(=O)OC)C(C)C)[nH]4)cc(C)c3-c3cc4cc(-c5cnc([C@@H]6CCCN6C(=O)[C@@H](NC(=O)OC)C6CCOC(C)(C)C6)[nH]5)ccc4n32)s1 (single isomer, unassigned)" result="0.012 nM"
compound="COC(=O)N[C@H](C(=O)N1C[C@H](F)C[C@H]1c1cnc(-c2ccc3c(c2)cc2n3C(c3cc4ccccc4s3)Oc3cc(-c4cnc([C@@H]5C[C@@H](F)CN5C(=O)[C@@H](NC(=O)OC)C(C)C)[nH]4)ccc3-2)[nH]1)C(C)C (single isomer, unassigned)" result="21.5 nM"
compound="COC(=O)N[C@H](C(=O)N1CCC[C@H]1c1ncc(-c2cc(F)c3c(c2)OC(c2ccc(C4CC4)s2)n2c-3cc3cc(-c4cnc([C@@H]5C[C@@H](F)CN5C(=O)[C@@H](NC(=O)OC)C(C)C)[nH]4)ccc32)[nH]1)C(C)C (some centres unmarked)" result="2.4 nM"
compound="COC(=O)N[C@H](C(=O)N1CCC[C@H]1c1ncc(-c2ccc3c(c2)O[C@@H](c2cc4c(s2)CCC4)n2c-3cc3cc(-c4cnc([C@@H]5CCCN5C(=O)[C@@H](NC(=O)OC)C(C)C)[nH]4)ccc32)[nH]1)C(C)C (single isomer, unassigned)" result="1.09 nM"
